Tested on: OVCAR-8 ovarian
Assay: NCI-60 one-dose screen, 48 h (100 = growth as untreated, 0 = no growth, -100 = all killed)
Details: 10 µM unless noted
The panel holds about 83,000 compounds, 20% with a hit somewhere; the sample as a whole holds those more often.
Record class 1 whenever growth is at 80% or higher; record class 0 when lower.

Here are 5 compounds together with their reported answers.
Record COc1ccc(-c2cc(=O)oc3ccc(Cl)cc23)cc1F ; criterion: growth no lower than 80%. Met? class 0

Record COC(=O)[C@]12CC[C@@H](C)[C@H](C)[C@@H]1C1=CC[C@@H]3[C@@]4(C)C[C@@H](OC(C)=O)[C@H](O)[C@@](C)(CO)[C@@H]4[C@H](O)C[C@@]3(C)[C@]1(C)CC2 ; criterion: growth no lower than 80%. Met? class 0

Record Fc1ccc(Nc2nnc(-c3ccc(Cl)cc3)o2)cc1 ; criterion: growth no lower than 80%. Met? class 1

Record O=C(CCCCCn1c2ccccc2c2c3c(c4c5ccccc5[nH]c4c21)C(=O)N(O)C3=O)N1CCOCC1 ; criterion: growth no lower than 80%. Met? class 0

Record CC(C)=CCC[C@](C)(O)[C@H]1CC[C@]2(C)[C@@H]1CC[C@@H]1[C@@]3(C)C/C(=C/c4ccc(Br)cc4)C(=O)C(C)(C)[C@@H]3CC[C@]12C ; criterion: growth no lower than 80%. Met? class 1

Continuing:
Record CC1(C)CC[C@]2(CO)CC[C@]3(C)C(=CC[C@@H]4[C@@]5(C)CC[C@H](NCO)C(C)(C)[C@@H]5CC[C@]43C)[C@@H]2C1 ; criterion: growth no lower than 80%. Met? class 0

Record CCN1CCN(C(=O)[C@]23CC[C@@H](C)[C@H](C)[C@H]2C2=CC[C@@H]4[C@@]5(C)C/C(=C/c6cccc(OC)c6OC)C(=O)C(C)(C)[C@@H]5CC[C@@]4(C)[C@]2(C)CC3)CC1 ; criterion: growth no lower than 80%. Met? class 0

====

System: A549/ATCC NSCLC
Assay: NCI-60 one-dose screen, 48 h
Conditions: 10 µM unless noted
Procedure: Growth inhibition of the A549/ATCC human Non-Small Cell Lung tumor cell line is measured as a screen for anti-cancer activity. Cells are grown in 96 well plates and exposed to the test compound for 48 hours. Compounds are tested at a single concentration, which is 10^-5 M for most compounds. The reported endpoint is percent growth (GI% or GIPRCNT), where numbers from 0 - 100% represent growth inhibition, and numbers from -100% - 0 represent cell death. […]
Compounds without any hit were thinned out: in the full panel of roughly 83,000, 20% have a hit. The source made the active and inactive calls. The calls were made as follows: active = growth percent below 10; inactive = the rest.
Classes to choose from: active, inactive

Here are 5 compounds together with their reported answers.
Hello, I am checking results. What call was entered for N#CC1=C(N)Oc2c(c(N)nn2-c2ccccc2)C1c1ccc(Cl)cc1Cl (configuration not stated) ? inactive

Hello, I am checking results. What call was entered for COc1cccc(-c2nn(-c3ccccc3)cc2-c2ccnc(NCCCO)c2)c1 ? inactive

Hello, I am checking results. What call was entered for COc1ccc2c(c1)c(-c1nc(-c3c[nH]c4ncccc34)cs1)cn2CCN ? inactive

Hello, I am checking results. What call was entered for c1csc(-c2nc(-c3cc4ccccc4c(N4CCOCC4)n3)cs2)c1 ? inactive

Hello, I am checking results. What call was entered for Fc1ccc(Nc2nc(Nc3ccc(-c4nc5ccccc5[nH]4)cc3)nc(N3CCCC3)n2)cc1 ? inactive

Continuing:
Hello, I am checking results. What call was entered for COC(=O)c1cc(=O)nc(N/N=C/c2ccc(C)cc2)s1 ? inactive

Hello, I am checking results. What call was entered for COC(=O)[C@]12CC[C@@H](C)[C@H](C)[C@@H]1C1=CC[C@@H]3[C@@]4(C)C=C(O)C(=O)C(C)=C4CC[C@@]3(C)[C@]1(C)CC2 ? inactive

Hello, I am checking results. What call was entered for CC/C(=N/NC(N)=O)c1ccccc1 ? inactive

Hello, I am checking results. What call was entered for CNC(=O)c1cc(Oc2ccc3nc(NC(=O)Nc4ccc(Cl)cc4)sc3c2)ccn1 ? inactive

Hello, I am checking results. What call was entered for COc1ccc(C2C(C#N)=C(N)Oc3c2sc2c(F)cccc32)cc1 (configuration not stated) ? inactive

Hello, I am checking results. What call was entered for CCc1cccc(CC)c1NC(=O)c1sc2nc3c(cc2c1N)CCCC3 ? inactive

Hello, I am checking results. What call was entered for C[C@@H](C(=O)O)c1ccc2c3cc(Cl)ccc3n(Cc3cc(=O)oc4ccc(Cl)cc34)c2c1 ? inactive

Hello, I am checking results. What call was entered for Cc1csc(Nc2nc(-c3ccc(Cl)cc3)nc(C(Cl)(Cl)Cl)n2)n1 ? inactive

Hello, I am checking results. What call was entered for Oc1cccc2oc(=S)[nH]c12 ? inactive

Hello, I am checking results. What call was entered for Fc1ccc(Nc2nnc(-c3ccc(Cl)cc3)o2)cc1 ? inactive

Hello, I am checking results. What call was entered for CN1CCN(CC#CCn2c3c(c4ccccc42)C[C@]2(C)[C@H]4CC[C@@H]5[C@H]6[C@H]7OC(=O)[C@@]6(CCC7(C)C)CC[C@@]5(C)[C@]4(C)CC[C@H]2C3(C)C)CC1 ? inactive

Hello, I am checking results. What call was entered for CCN1CCN(C(=O)[C@@]2(C)CC[C@]3(C)CC[C@]4(C)C(=CC(=O)[C@@H]5[C@@]6(C)CC[C@H](OC7C[C@@H](O)[C@@H](O)C(C)O7)C(C)(C)[C@@H]6CC[C@]54C)[C@@H]3C2)CC1 (some centres not stated) ? inactive

Hello, I am checking results. What call was entered for C=COCCCCCCCCCCCCCCCCCC ? inactive

Hello, I am checking results. What call was entered for O=C(CI)Nc1ccc(O)c2ccccc12 ? inactive

Hello, I am checking results. What call was entered for CC(Cc1ccco1)C(=O)NC(N)=O (configuration not stated) ? inactive

Hello, I am checking results. What call was entered for CCN(CC)c1ccc(/C=C/c2cc(C)c3ccccc3n2)cc1 ? inactive

Hello, I am checking results. What call was entered for COC(=O)[C@]12CC[C@@H](C)[C@H](C)[C@@H]1C1=CC[C@@H]3[C@@]4(C)C[C@@H](OC(C)=O)[C@H](O)[C@@](C)(COC(C)=O)[C@@H]4[C@H](O)C[C@@]3(C)[C@]1(C)CC2 ? active
